target: human CD40 on cells (human, UniProt P25942 21-277); experiment: cell-based or functional assay
Sequence (P25942 21-277 limits assumed): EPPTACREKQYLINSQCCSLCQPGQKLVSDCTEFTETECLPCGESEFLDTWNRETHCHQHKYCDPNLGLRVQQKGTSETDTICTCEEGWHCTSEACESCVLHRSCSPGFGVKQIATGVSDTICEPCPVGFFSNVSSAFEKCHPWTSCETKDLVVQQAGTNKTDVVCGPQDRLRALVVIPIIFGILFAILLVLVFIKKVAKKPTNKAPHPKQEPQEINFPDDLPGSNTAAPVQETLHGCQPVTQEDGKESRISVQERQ
Experimental readout: human B cell proliferation, no crosslinking, Max Fold Change (fold)
Write it as a number; the unit fold goes unstated.

1. 4G7 (antibody, IgG4, V domains shown, also called 4869-1) VH: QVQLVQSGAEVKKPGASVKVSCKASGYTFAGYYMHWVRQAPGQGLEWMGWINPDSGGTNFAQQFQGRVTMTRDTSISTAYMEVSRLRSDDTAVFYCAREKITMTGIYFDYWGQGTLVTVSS VL: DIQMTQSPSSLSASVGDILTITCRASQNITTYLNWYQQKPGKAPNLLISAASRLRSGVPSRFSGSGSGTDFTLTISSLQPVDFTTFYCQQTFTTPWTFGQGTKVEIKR :: 1.19

Tell me the measured human B cell proliferation, no crosslinking, Max Fold Change of 30A12 (antibody, IgG4, V domains shown, also called 4878-1) VH: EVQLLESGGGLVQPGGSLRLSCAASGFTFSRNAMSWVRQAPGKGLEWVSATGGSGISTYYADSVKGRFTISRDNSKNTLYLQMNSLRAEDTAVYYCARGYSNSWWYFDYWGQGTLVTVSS VL: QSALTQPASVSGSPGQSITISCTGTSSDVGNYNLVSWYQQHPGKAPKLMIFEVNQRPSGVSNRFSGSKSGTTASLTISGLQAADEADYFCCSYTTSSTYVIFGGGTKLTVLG , please. 1.45

How about this binder: 37A6 (antibody, IgG4, V domains shown, also called 4865-1) VH: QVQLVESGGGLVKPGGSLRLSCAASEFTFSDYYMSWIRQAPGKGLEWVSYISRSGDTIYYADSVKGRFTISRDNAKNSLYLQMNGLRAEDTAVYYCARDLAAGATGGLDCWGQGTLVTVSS VL: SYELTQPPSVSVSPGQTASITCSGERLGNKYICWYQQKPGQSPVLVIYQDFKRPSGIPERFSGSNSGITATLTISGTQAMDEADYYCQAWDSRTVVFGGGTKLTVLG 1.19

How about this binder: 33H6 (antibody, IgG4, V domains shown, also called 4883-1) VH: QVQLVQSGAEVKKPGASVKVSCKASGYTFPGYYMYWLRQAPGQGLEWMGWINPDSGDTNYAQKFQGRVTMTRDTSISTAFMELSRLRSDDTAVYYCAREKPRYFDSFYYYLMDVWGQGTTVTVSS VL: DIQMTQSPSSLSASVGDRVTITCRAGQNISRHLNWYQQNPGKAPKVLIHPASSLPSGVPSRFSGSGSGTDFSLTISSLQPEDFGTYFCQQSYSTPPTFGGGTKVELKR 1.21

How about this binder: 33H9 (antibody, IgG4, V domains shown, also called 4897-1) VH: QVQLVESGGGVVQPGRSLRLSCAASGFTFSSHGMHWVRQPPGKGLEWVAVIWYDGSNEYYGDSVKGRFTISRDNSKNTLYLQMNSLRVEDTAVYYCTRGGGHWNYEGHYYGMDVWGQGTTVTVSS VL: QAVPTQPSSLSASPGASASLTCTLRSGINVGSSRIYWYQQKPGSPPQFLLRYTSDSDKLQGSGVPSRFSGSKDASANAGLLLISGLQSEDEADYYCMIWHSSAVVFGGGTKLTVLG 1.35

How about this binder: 35F11 (antibody, IgG4, V domains shown, also called 4868-1) VH: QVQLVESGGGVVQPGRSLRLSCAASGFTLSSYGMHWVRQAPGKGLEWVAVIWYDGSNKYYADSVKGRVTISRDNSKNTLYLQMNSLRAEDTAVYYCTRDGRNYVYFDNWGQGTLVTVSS VL: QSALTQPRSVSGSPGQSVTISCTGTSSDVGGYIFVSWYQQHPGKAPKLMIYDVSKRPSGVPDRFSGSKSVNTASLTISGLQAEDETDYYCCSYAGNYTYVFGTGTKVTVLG 1.33
